- studySystem: Adenosine kinase (Rattus norvegicus)
- Sequence (Q64640 whole entry): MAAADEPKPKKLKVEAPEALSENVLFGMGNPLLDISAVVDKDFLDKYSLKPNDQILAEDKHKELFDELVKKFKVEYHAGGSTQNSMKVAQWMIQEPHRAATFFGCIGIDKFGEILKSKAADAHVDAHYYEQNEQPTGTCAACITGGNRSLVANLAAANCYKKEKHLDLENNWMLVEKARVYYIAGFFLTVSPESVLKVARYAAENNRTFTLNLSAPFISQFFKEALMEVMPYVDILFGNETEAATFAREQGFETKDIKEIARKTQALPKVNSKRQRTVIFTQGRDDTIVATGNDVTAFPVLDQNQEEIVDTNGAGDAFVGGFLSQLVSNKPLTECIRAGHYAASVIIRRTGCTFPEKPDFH
- measurementDescription: Inhibitory activity against cytosolic adenosine kinase by ADO phosphorylation assay
pIC50: −log10 of the molar value.
measuredEndpoint: pIC50

Record excerpt, results attached:
[
  {
    "compoundStructure": "COc1cccc(-c2cc(-c3ccc(N(C)C)cc3)nc3ncnc(N)c23)c1",
    "measuredEndpoint": "pIC50",
    "reportedMeasurement": 7.07
  },
  {
    "compoundStructure": "CN(C)c1ccc(-c2cc(C3CCCCC3)c3c(N)ncnc3n2)cc1",
    "measuredEndpoint": "pIC50",
    "reportedMeasurement": 8.10
  },
  {
    "compoundStructure": "Nc1ncnc2nc(-c3ccc(N4CCOCC4)nc3)cc(-c3cccnc3)c12",
    "measuredEndpoint": "pIC50",
    "reportedMeasurement": 7.21
  },
  {
    "compoundStructure": "Nc1ncnc2nc(-c3ccc(N4CCOCC4)nc3)cc(-c3ccsc3)c12",
    "measuredEndpoint": "pIC50",
    "reportedMeasurement": 7.89
  }
]

(a) Nc1ncnc2nc(-c3ccc(N4CCOCC4)nc3)cc(C3CCOCC3)c12
(b) CN(C)c1ccc(-c2cc(-c3cccc(C(N)=O)c3)c3c(N)ncnc3n2)cc1
Which value of pIC50 is numerically greater: that of a or that of b ? In your reply, give the label of the chosen option.
a
(a: 7.77, b: 7.11)
